- Tested on: THRa homodimer (NR concentration 90 nM)
- assay.comment: PBM binding z-score (relative to random genomic background probes); higher = stronger binding; sequences stand for … in GC…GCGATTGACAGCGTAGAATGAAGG
endpoint: PBM binding z-score
Numbers only.

Some sequences with known PBM binding z-score results, for comparison:
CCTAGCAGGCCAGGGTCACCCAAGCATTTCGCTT 1.71
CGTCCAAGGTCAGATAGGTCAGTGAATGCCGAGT 1.92
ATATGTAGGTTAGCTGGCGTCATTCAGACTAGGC -0.829
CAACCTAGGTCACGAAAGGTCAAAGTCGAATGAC 2.77
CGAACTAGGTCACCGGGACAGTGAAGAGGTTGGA 1.79

Each sequence below has a recorded value; state its PBM binding z-score.
1. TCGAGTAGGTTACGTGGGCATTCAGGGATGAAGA
2. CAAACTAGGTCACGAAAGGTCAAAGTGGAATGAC
3. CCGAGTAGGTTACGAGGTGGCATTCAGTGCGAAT
4. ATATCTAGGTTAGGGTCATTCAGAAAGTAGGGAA
5. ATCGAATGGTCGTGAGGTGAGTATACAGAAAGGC
6. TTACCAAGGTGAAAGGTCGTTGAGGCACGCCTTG
7. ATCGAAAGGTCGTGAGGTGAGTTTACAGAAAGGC

Data returned:
1. -0.426
2. 2.81
3. -0.2
4. 3.56
5. 1.09
6. 0.818
7. 1.5

Here are 8 sequences. What values of PBM binding z-score were reported for them?
1. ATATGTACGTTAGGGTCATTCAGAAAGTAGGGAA
2. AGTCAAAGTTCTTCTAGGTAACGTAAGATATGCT
3. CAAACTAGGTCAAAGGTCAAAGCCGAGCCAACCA
4. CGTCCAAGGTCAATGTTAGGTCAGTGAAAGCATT
5. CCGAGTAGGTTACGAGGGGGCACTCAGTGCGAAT
6. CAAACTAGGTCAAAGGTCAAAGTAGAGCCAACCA
7. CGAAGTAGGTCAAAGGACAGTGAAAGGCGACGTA
8. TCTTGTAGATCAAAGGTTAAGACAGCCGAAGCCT

Data returned:
1. 2.87
2. 0.292
3. 1.74
4. 3.81
5. 0.205
6. 1.79
7. -0.0786
8. -0.0838

Need PBM binding z-score for each of these sequences.
1. CAAACTAGGTCACGAAAGGTCAAAATCGAATGAC
2. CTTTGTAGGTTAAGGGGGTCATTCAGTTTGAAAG

Data returned:
2.42
2.08

###

- System: PPARg homodimer (NR concentration 180 nM)
- assay.comment: PBM binding z-score (relative to random genomic background probes); higher = stronger binding; sequences stand for … in GC…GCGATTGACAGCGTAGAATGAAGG
Would you mind telling me the reported PBM binding z-score of each entry?
Answers are plain numbers.

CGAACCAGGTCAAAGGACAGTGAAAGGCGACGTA 1.1

Below are 3 sequences. Give each one its PBM binding z-score.
1. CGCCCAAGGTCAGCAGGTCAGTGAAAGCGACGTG
2. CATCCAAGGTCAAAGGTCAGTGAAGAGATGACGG
3. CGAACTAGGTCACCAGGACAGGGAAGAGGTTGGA

Data returned:
3.74
5.52
4.22

For every item below, please supply its PBM binding z-score.
1. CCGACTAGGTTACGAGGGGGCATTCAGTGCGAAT
2. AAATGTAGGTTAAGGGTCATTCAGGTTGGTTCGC

Data returned:
[1.66, 3.58]
